Values were extracted from patent US11814363B2.

- measurement.protocol: Visual solubility estimate of amorphous Compound 1 in solvents
- Assay type: physicochemical
- experimental.setup: water, 40 °C, thermodynamic from solid
readout.name: solubility

Request: # lookup: solubility of CC(=O)c1nn(CC(=O)N2C[C@H](F)C[C@H]2C(=O)Nc2cccc(Br)n2)c2ccc(-c3cnc(C)nc3)cc12
Response: < 5590 µg/mL

###

- measurement.protocol: Visual solubility estimate of amorphous Compound 1 in solvents
- Format: physicochemical
- experimental.setup: dimethyl sulfoxide, 23 °C, organic solvent or mixture, thermodynamic from solid, Dimethyl Sulfoxide; RT (~23° C.); visually estimated; read-out: Solubility at RT
- Protocol: The solubility of amorphous Compound 1 was estimated in 14 solvents to facilitate the solvent selection for the crystallization study. The solubility of Compound 1 was visually estimated at room temperature (RT; ˜23° C.) by dosing small aliquots of solvent into a fixed amount of solid (˜10 mg) until the dissolution point or a maximum volume (1.7 mL) was reached.
readout.name: solubility

Request: # lookup: solubility of CC(=O)c1nn(CC(=O)N2C[C@H](F)C[C@H]2C(=O)Nc2cccc(Br)n2)c2ccc(-c3cnc(C)nc3)cc12
Response: > 452 mg/mL

###

- measurement.protocol: Visual solubility estimate of amorphous Compound 1 in solvents
- Type: physicochemical
- experimental.setup: toluene, 23 °C, organic solvent or mixture, thermodynamic from solid, Toluene; RT (~23° C.); visually estimated; read-out: Solubility at RT
readout.name: solubility

Request: # lookup: solubility of CC(=O)c1nn(CC(=O)N2C[C@H](F)C[C@H]2C(=O)Nc2cccc(Br)n2)c2ccc(-c3cnc(C)nc3)cc12
Response: < 5350 µg/mL

###

- measurement.protocol: Visual solubility estimate of amorphous Compound 1 in solvents
- Assay type: physicochemical
- experimental.setup: chloroform, 23 °C, organic solvent or mixture, thermodynamic from solid, Chloroform; RT (~23° C.); visually estimated; read-out: Solubility at RT
readout.name: solubility

Request: # lookup: solubility of CC(=O)c1nn(CC(=O)N2C[C@H](F)C[C@H]2C(=O)Nc2cccc(Br)n2)c2ccc(-c3cnc(C)nc3)cc12
Response: 92 to 368 mg/mL

###

- measurement.protocol: Visual solubility estimate of amorphous Compound 1 in solvents
- Assay type: physicochemical
- experimental.setup: 1,4-dioxane, 23 °C, organic solvent or mixture, thermodynamic from solid, 1,4-Dioxane; RT (~23° C.); visually estimated; read-out: Solubility at RT
readout.name: solubility

Request: # lookup: solubility of CC(=O)c1nn(CC(=O)N2C[C@H](F)C[C@H]2C(=O)Nc2cccc(Br)n2)c2ccc(-c3cnc(C)nc3)cc12 [Amorphous Compound 1]
Response: 98 to 392 mg/mL

###

- measurement.protocol: Visual solubility estimate of amorphous Compound 1 in solvents
- Format: physicochemical
- experimental.setup: tetrahydrofuran, 23 °C, organic solvent or mixture, thermodynamic from solid, Tetrahydrofuran; RT (~23° C.); visually estimated; read-out: Solubility at RT
readout.name: solubility

Request: # lookup: solubility of CC(=O)c1nn(CC(=O)N2C[C@H](F)C[C@H]2C(=O)Nc2cccc(Br)n2)c2ccc(-c3cnc(C)nc3)cc12
Response: 92 to 368 mg/mL
